biological target: PTK2B (human) (UniProt Q14289); assay: radiometric filter-binding kinase assay, Kinase HotSpot; conditions: compound 0.5 µM; ATP 10 µM
Sequence (Q14289 whole entry, looked up): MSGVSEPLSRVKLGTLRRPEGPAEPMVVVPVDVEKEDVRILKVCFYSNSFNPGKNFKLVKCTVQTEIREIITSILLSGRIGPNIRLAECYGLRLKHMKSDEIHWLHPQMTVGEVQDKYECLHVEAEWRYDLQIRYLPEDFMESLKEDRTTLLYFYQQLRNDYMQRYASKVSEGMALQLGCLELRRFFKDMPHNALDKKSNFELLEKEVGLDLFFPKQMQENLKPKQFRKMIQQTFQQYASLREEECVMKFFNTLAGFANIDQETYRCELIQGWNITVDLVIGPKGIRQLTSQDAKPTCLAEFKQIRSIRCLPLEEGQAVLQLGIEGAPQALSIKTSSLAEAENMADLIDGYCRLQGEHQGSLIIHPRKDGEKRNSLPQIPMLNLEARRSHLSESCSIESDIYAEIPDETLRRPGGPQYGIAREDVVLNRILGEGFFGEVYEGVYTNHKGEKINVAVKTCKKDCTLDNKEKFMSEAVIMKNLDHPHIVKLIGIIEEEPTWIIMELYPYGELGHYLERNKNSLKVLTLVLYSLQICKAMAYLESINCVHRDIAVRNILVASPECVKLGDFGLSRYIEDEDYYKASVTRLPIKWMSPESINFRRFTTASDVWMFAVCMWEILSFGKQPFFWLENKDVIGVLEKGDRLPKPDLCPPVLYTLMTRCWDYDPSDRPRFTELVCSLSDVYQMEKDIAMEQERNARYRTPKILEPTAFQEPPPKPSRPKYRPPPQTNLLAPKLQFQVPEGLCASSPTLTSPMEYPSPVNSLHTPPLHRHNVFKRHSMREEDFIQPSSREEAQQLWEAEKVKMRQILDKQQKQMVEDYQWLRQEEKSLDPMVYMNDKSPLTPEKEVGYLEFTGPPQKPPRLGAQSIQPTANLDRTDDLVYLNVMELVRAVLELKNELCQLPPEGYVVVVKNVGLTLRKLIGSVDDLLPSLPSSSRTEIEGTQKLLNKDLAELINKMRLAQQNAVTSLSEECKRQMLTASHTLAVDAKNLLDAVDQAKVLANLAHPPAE

[
  {
    "Input Smiles": "COc1ccc(Cl)cc1NC(=O)Nc1cc(C)nc2ccccc12",
    "Target Desc": "PTK2B (human) (UniProt Q14289)",
    "residual activity, %": 88.9
  },
  {
    "Input Smiles": "COc1cc2ncnc(Nc3ccc(Oc4ccccc4)cc3)c2cc1OC",
    "Target Desc": "PTK2B (human) (UniProt Q14289)",
    "residual activity, %": 89
  },
  {
    "Input Smiles": "Ic1cccc(CSc2nnc(-c3ccncc3)o2)c1",
    "Target Desc": "PTK2B (human) (UniProt Q14289)",
    "residual activity, %": 92.1
  }
]
